TEST TARGET: T1, PACAP-R3 (human, UniProt P41587 24-438)
T1 sequence (looked up): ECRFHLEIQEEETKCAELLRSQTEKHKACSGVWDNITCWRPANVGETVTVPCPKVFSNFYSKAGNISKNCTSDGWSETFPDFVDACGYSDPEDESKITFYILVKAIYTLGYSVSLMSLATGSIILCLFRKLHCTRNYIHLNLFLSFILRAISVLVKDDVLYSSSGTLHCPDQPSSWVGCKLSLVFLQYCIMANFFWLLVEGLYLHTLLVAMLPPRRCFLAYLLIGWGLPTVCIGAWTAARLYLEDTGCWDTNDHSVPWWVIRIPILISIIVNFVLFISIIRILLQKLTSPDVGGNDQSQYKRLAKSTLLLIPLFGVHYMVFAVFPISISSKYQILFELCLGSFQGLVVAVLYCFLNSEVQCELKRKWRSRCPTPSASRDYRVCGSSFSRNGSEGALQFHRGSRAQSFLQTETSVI
PROCEDURE TEXT: cell-based or functional assay
Classification field: True = R3 EC50 at or over 0.3 nM; False = R3 EC50 under 0.3 nM.

# example entries with known answers
> print(dat)
                                    binder  label.value
1  HSDAVFTDNYTRLRKQMAAKKYLNSIFNKR [R3P120]        False
2    HSDAVFTDNYTRLRKQVAAKKYLQSILKK [R3P85]        False
3   HSDAVFTDNYTRLRKQVAAKKYLQSILKKR [R3P84]        False
4      HSDAVFTENYTKLRKQLAAKKYLNDLKK [R3P5]         True

Evaluate HSDAVFTDNYTRLRKQMAGKKYLNSIKNKR [R3P101] : R3 EC50 at minimum 0.3 nM? True

Evaluate HSDAVFTDNYTRLRKQMAAKHYLNSIKNKRY [R3P74] : R3 EC50 at minimum 0.3 nM? True
